# Test system: A549 (human lung adenocarcinoma)
# assay_summary: MTT-test A549
# Assay type: cell-based
# experimental_conditions: Homo sapiens, A549
reported_property: pIC50
Give bare numbers, as −log10 of the molar value.

Ask: State its pIC50: `CC(C)(C)c1cc(C(=O)N/N=C/c2ccccc2O)cc(C(C)(C)C)c1O`
Reply: 5.66
